Values were extracted from ChEMBL document CHEMBL1201862.

System: HT-29
assayOverview: NCI tumour cell line growth inhibition, 48 h
Activity calls are given as the source filed them. Rule as the data show it: active = GI50 up to about 1.1 µM and inactive = higher.
measurementLabel: GI50

Query: Returns the measured GI50 for the input compound. Input: COC(=O)c1oc([N+](=O)[O-])c(-c2ccccc2)c1-c1ccccc1
Reply: 88.3 µM (inactive)

Query: Entry to check: CC1=CC2CC(C)C1(C)CCc1ccoc12 (centres undefined)
Reply: > 100 µM (inactive)

Query: Entry to check: CC(=O)O[C@@H]1CC(C)C2CC2C2=C(C(O)OC2O)[C@@H]1C(C)CCC=C(C)C (some centres undefined)
Reply: 19 µM (inactive)

Query: Entry to check: COC(=O)C1=C(C)N2[C@H](C(=O)O)CS[C@@]2(C)[C@H](C(=O)OC)[C@H]1c1cccc([N+](=O)[O-])c1
Reply: > 100 µM (inactive)

Query: Entry to check: CO/C(=C/C(=O)C(Cl)(Cl)Cl)CC/C(=C\C(=O)C(Cl)(Cl)Cl)OC
Reply: 25 µM (inactive)

Query: Entry to check: Cc1ccc(C)c(/C(=N\N=C(N)N)C2CC2)c1
Reply: 29.3 µM (inactive)

Query: Entry to check: O=CC[C@H]1CCc2ccccc2C12CCC(=O)CC2
Reply: 47.9 µM (inactive)

Query: Entry to check: COc1ccc(/C=C2\Sc3nnc(CNc4ccc(Cl)cc4)n3N=C2c2cc(F)c(Cl)cc2Cl)cc1OC
Reply: 28.6 µM (inactive)

Query: Entry to check: N#CCC12CC=CCC1=C(O)C(=O)c1ccc(O)cc12 (centres undefined)
Reply: > 100 µM (inactive)

----------
Test system: SK-OV-3
assayOverview: NCI tumour cell line growth inhibition, 48 h
The source made the active and inactive calls. Rule as the data show it: active = GI50 up to about 1.1 µM and inactive = higher.
Consider the following compounds; for each one, report its GI50.

Query: API: value(readout= GI50, system= SK-OV-3, query= NCc1ccc(-c2ccc(CN)s2)s1 )
Reply: 83.8 µM (inactive)

Query: Entry to check: CN(C)CC1CC/C(=C\c2ccc(Cl)cc2)C1=O (stereo not given)
Reply: 15.7 µM (inactive)

Query: Entry to check: CC(C)NC(=O)CN1CCN(C2=CC(=O)c3c(O)ccc(O)c3C2=O)CC1
Reply: 26.1 µM (inactive)

Query: Entry to check: COc1ccc2c(c1)CN1C(=N2)CSC1c1cccc(Br)c1 (stereo not given)
Reply: > 100 µM (inactive)

Query: Entry to check: CC12CC/C(=N/NC(N)=O)C3C1CCCC32
Reply: > 100 µM (inactive)

Query: Entry to check: O=S1(=O)OCCOS(=O)(=O)C1(Br)Br
Reply: > 100 µM (inactive)

Query: Entry to check: COC(=O)/C(C#N)=C1\CCC(OC)N1C (stereo not given)
Reply: > 100 µM (inactive)

Query: Entry to check: CCOC(=O)NC(NC1=NCCS1)(C(=O)OCC)C(F)(F)F (stereo not given)
Reply: > 100 µM (inactive)

Query: Entry to check: O=S(=O)(O)c1cc(S(=O)(=O)O)c2c(/N=N/c3ccc(/N=N/c4ccccc4)cc3)c(O)ccc2c1
Reply: > 100 µM (inactive)

Query: Entry to check: c1ccc(CN2CCC3(CC2)SSC2(CCN(Cc4ccccc4)CC2)S3)cc1
Reply: > 100 µM (inactive)

Query: Entry to check: NC(=S)NC/C=C/Cl
Reply: > 100 µM (inactive)

Query: Entry to check: N/N=C1N=C(Cl)/C(=C/c2ccco2)N\1
Reply: 76 µM (inactive)

Query: Entry to check: O=C(CSCC(=O)N/N=C/c1ccncc1)N/N=C/c1ccncc1
Reply: > 100 µM (inactive)

Query: Entry to check: O=C1CC(c2ccccc2)Oc2ccccc21 (stereo not given)
Reply: 84.1 µM (inactive)

Query: Entry to check: COC(=O)C1=C(C[S+]([O-])c2ccccc2[N+](=O)[O-])ON(C)C1c1ccccc1 (stereo not given)
Reply: > 100 µM (inactive)

Query: Entry to check: COc1ccc2[nH]c3c(c2c1)[C@H]1CCC(C(C)(C)C)C[C@H]1[C@H]1C(=O)N(c2ccccc2)C(=O)[C@@H]31 (stereo not given in full)
Reply: 15.6 µM (inactive)

Query: Entry to check: O=C(/C=C/c1ccc(-c2ccccc2)cc1)NCc1ccc(C(=O)NCCc2c[nH]c3ccccc23)cc1
Reply: 14.5 µM (inactive)

Query: Entry to check: N#CCC(=O)N/N=C(\C(=O)Nc1ccc(Cl)c(Cl)c1)C1CN(c2ccccc2)N=C1N (stereo not given)
Reply: > 100 µM (inactive)

Query: Entry to check: CN1c2ccccc2C2=C(c3ccccc3)CC[C@@H](C(=O)N3C4CC5CC[C@@]4(CS3(=O)=O)C5(C)C)[C@@H]21 (stereo not given in full)
Reply: > 100 µM (inactive)

Query: Entry to check: C/C1=C\CC[C@@]2(C)O[C@@H]2[C@H]2OC(=O)C(C)C2C[C@H]1O (stereo not given in full)
Reply: > 100 µM (inactive)

Query: Entry to check: O=C1C(Cl)=C(Cl)C(=O)N1C1C2CC3CC(C2)CC1C3 (stereo not given)
Reply: > 100 µM (inactive)

Query: Entry to check: COc1c2c(nc3ccccc13)-c1cc(C(CC(=O)OC(C)(C)C)C(=O)OC(C)C)c(CO)c(=O)n1C2 (stereo not given)
Reply: > 40.2 µM (inactive)

Query: Entry to check: C[C@@H]1S[C@H](c2c(Cl)cccc2Cl)N2Cc3ccccc3N=C12
Reply: > 100 µM (inactive)

Query: Entry to check: O=C(CC1(O)C(=O)Nc2ccc(Br)cc21)c1cccc([N+](=O)[O-])c1 (stereo not given)
Reply: > 100 µM (inactive)

Query: Entry to check: O=C(NCCN(CCNC(=O)c1cccc(=O)n1O)CCNC(=O)c1cccc(=O)n1O)c1cccc(=O)n1O
Reply: > 100 µM (inactive)

----------
Consider the following molecules; for each one, report its GI50.
Tested on: SN12C
assayOverview: NCI tumour cell line growth inhibition, 48 h
Calls of active or inactive are those of the source. Cut-off read from the data, not from the text of the source: active = GI50 up to about 1.1 µM and inactive = higher.

Query: Returns the measured GI50 for the input molecule. Input: Cn1cnc([N+](=O)[O-])c1Sc1nc(N)nc2c1ncn2[C@H]1C[C@H](O)[C@@H](CO)O1
Reply: 5.16 µM (inactive)

Query: Entry to check: O=C(CCCc1ccccn1)c1ccccc1
Reply: > 100 µM (inactive)

Query: Entry to check: COC(=O)N/N=C(\c1nc2ccc(Cl)cc2nc1O)C(O)c1ccc([N+](=O)[O-])cc1 (stereo not given)
Reply: > 100 µM (inactive)

Query: Entry to check: CO/N=C1/C(n2[nH]c(=O)n(-c3ccccc3)c2=O)C2C=CC1n1c(=O)n(-c3ccccc3)c(=O)n12 (stereo not given)
Reply: > 100 µM (inactive)

Query: Entry to check: Cn1cc(C(=O)C2CCCCC2)ccc1=O
Reply: > 100 µM (inactive)

Query: Entry to check: O=c1[nH]c(S)nc2c1sc(=S)n2-c1ccccc1
Reply: > 100 µM (inactive)

Query: Entry to check: COc1c(/C=C/C=O)cc2c(c1OC)OCO2
Reply: 24.2 µM (inactive)

Query: Entry to check: COC(=O)C[C@H](COCc1ccccc1)NC(=O)C[C@H](COCc1ccccc1)NC(=O)C[C@H](COCc1ccccc1)NC(=O)OC(C)(C)C
Reply: 41.4 µM (inactive)

Query: Entry to check: CC1(C)N=C(/C=N/O)C(C)(C)N1O
Reply: > 100 µM (inactive)

Query: Entry to check: Cc1ccc(-c2c(C#N)c(-c3ccc(Cl)cc3)c(C#N)c(=O)n2NS(=O)(=O)c2ccccc2)cc1
Reply: 95.1 µM (inactive)

Query: Entry to check: Cc1ccc(S(=O)(=O)Oc2cc(-c3ccccc3)nc3ccccc23)cc1
Reply: 5.93 µM (inactive)

Query: Entry to check: CCOC(=O)CCC(NC(=O)C(N)c1ccc([N+](=O)[O-])cc1)C(=O)NC(CCC(=O)OCC)C(=O)OCC (stereo not given)
Reply: > 100 µM (inactive)

Query: Entry to check: Cc1ccc(S(=O)(=O)N2CCSCCSCCN(S(=O)(=O)c3ccc(C)cc3)CCN(S(=O)(=O)c3ccc(C)cc3)CC2)cc1
Reply: > 100 µM (inactive)

Query: Entry to check: C/C(=N\Nc1nc2ccccc2[nH]1)c1ccc2ccccc2n1
Reply: 1.52 µM (inactive)

Query: Entry to check: CC(C)OP(=O)(OC(C)C)C1=NN(c2ccc([N+](=O)[O-])cc2)C(P(=O)(OC(C)C)OC(C)C)=NN1c1ccc([N+](=O)[O-])cc1
Reply: 44.7 µM (inactive)

Query: Entry to check: COC(=O)c1ccc2cc(O)c(O)cc2c1
Reply: 55.2 µM (inactive)

Query: Entry to check: CC1OC(=O)C2CC3CCCCC3C(/C=C/C3CCCC(C)N3C)C12 (stereo not given)
Reply: > 100 µM (inactive)

Query: Entry to check: CCSc1nnc(-c2ccccc2)nc1Cc1ccc(OC)cc1
Reply: > 100 µM (inactive)

Query: Entry to check: C=CCn1c2c(sc1=S)C(S)NC=N2 (stereo not given)
Reply: > 100 µM (inactive)

Query: Entry to check: Clc1ccc2cccc3c2c1C1OC3c2ccccc21 (stereo not given)
Reply: > 100 µM (inactive)
